// reported pIC50 for each item listed
- target_or_test_system: Integrin alpha-4/beta-1 (Homo sapiens, UniProt P05556+P13612)
- Sequence (P05556 whole entry): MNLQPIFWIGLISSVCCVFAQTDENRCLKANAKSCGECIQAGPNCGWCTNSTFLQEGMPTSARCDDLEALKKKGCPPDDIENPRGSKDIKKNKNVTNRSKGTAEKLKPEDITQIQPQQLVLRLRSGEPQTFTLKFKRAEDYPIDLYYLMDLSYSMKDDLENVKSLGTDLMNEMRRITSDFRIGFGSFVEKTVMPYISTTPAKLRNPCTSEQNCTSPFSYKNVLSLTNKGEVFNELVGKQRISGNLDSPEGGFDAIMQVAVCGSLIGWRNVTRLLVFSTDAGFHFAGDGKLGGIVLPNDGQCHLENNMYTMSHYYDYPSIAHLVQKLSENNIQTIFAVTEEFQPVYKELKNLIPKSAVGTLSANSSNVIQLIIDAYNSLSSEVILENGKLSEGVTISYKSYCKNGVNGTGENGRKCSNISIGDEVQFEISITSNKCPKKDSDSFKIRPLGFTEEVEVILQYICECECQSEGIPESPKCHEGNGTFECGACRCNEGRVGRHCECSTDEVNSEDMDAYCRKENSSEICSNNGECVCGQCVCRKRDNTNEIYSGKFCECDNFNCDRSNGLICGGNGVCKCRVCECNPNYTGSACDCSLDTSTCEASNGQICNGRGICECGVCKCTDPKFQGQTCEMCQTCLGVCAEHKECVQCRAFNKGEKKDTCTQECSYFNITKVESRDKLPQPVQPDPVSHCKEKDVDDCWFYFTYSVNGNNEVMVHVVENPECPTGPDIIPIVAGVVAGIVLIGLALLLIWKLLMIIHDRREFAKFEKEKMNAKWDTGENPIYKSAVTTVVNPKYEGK
- Sequence (P13612 whole entry): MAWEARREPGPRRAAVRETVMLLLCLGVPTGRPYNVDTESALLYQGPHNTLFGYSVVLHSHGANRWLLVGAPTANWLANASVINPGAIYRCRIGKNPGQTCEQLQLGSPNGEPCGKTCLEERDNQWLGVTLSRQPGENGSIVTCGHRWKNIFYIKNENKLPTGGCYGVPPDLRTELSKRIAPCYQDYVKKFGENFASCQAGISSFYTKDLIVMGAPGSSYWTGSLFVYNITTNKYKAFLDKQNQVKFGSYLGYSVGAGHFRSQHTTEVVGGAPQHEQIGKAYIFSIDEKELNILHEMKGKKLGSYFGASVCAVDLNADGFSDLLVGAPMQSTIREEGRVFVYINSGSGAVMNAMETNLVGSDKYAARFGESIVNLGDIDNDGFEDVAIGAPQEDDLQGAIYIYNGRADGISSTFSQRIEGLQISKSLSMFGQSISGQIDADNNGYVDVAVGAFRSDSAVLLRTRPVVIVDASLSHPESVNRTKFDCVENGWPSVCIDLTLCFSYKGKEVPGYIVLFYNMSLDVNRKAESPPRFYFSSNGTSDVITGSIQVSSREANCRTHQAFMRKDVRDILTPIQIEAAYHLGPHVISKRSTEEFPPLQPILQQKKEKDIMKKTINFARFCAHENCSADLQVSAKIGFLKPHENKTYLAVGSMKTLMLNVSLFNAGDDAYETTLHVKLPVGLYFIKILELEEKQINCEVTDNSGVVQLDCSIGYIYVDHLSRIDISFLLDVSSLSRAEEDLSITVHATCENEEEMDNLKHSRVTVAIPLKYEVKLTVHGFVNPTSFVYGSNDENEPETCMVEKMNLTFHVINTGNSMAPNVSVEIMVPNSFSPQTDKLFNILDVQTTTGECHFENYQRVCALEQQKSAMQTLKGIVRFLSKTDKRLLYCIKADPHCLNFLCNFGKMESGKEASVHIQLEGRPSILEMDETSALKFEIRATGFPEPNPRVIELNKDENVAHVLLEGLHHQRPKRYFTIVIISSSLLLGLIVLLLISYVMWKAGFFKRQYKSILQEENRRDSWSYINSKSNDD
- assay_procedure: Antagonistic activity against VLA-4 (derived from ramos cells) binding to recombinant human VCAM by ELISA assay
- Assay type: cell-based
# log scale: pIC50 equals minus log10 of the concentration in mol/L

Observe how each entry below is paired with its result.
COc1ccc(-c2cccnc2C(=O)Nc2ccc(C[C@H](NC(=O)C3CCC(=O)N3Cc3ccccc3)C(=O)O)cc2)cc1 (stereo partly drawn)    9.06
Cc1ccc([N+](=O)[O-])c(C(=O)Nc2ccc(C[C@H](NC(=O)C3CCC(=O)N3Cc3ccccc3)C(=O)O)cc2)c1 (stereo partly drawn)    9.13
O=C(O)[C@H](Cc1ccc(NS(=O)(=O)c2ccc([N+](=O)[O-])cc2)cc1)NC(=O)[C@@H]1CCC(=O)N1Cc1ccccc1    7.77
Cc1ccc(C(=O)Nc2ccc(C[C@H](NC(=O)C3CCC(=O)N3Cc3ccccc3)C(=O)O)cc2)c(Cl)n1 (stereo partly drawn)    8.62

# evaluate next
Requested read-out: pIC50. Entry: O=C(Nc1ccc(C[C@H](NC(=O)C2CCC(=O)N2Cc2ccccc2)C(=O)O)cc1)c1ccc(Cl)cc1[N+](=O)[O-] (stereo partly drawn)
9.43

----------
// reported pIC50 for each item listed
- target_or_test_system: Integrin alpha-4/beta-1 (Homo sapiens, UniProt P05556+P13612)
- assay_procedure: Antagonistic activity against VLA-4 (derived from ramos cells) binding to recombinant human VCAM by ELISA assay
- Type: cell-based
# log scale: pIC50 equals minus log10 of the concentration in mol/L

O=C(O)[C@H](Cc1ccc2ccccc2c1)NC(=O)[C@@H]1CCC(=O)N1Cc1ccccc1    7.23
O=C(Nc1ccc(C[C@H](NC(=O)[C@@H]2CCC(=O)N2Cc2ccccc2)C(=O)O)cc1)c1ccc([N+](=O)[O-])cc1    8.66
O=C(Nc1ccc(C[C@H](NC(=O)C2CCC(=O)N2Cc2ccccc2)C(=O)O)cc1)c1cc(F)c(F)cc1F (stereo partly drawn)    8.80
N#Cc1ccc(C[C@H](NC(=O)[C@@H]2CCC(=O)N2Cc2ccccc2)C(=O)O)cc1    6.00
O=C(NCc1ccc(C[C@H](NC(=O)[C@@H]2CCC(=O)N2Cc2ccccc2)C(=O)O)cc1)c1cccnc1    7.28

Quick check: pIC50 on Integrin alpha-4/beta-1 (Homo sapiens, UniProt P05556+P13612), item O=C(Nc1ccc(C[C@H](NC(=O)C2CCC(=O)N2Cc2ccccc2)C(=O)O)cc1)c1ccccc1[N+](=O)[O-] (stereo partly drawn) ?
9.06

Quick check: pIC50 on Integrin alpha-4/beta-1 (Homo sapiens, UniProt P05556+P13612), item O=C(O)[C@H](Cc1ccc(CCc2ccccc2)cc1)NC(=O)[C@@H]1CCC(=O)N1Cc1ccccc1 ?
7.42

Quick check: pIC50 on Integrin alpha-4/beta-1 (Homo sapiens, UniProt P05556+P13612), item CC(=O)N[C@@H](Cc1ccc(O)cc1)C(=O)Nc1ccc(C[C@H](NC(=O)[C@@H]2CCC(=O)N2Cc2ccccc2)C(=O)O)cc1 ?
8.09

Quick check: pIC50 on Integrin alpha-4/beta-1 (Homo sapiens, UniProt P05556+P13612), item O=C(O)[C@H](Cc1ccc(CO)cc1)NC(=O)[C@@H]1CCC(=O)N1Cc1ccccc1 ?
6.82

Quick check: pIC50 on Integrin alpha-4/beta-1 (Homo sapiens, UniProt P05556+P13612), item O=C(O)[C@H](Cc1ccc(COc2ccc([N+](=O)[O-])cc2)cc1)NC(=O)[C@@H]1CCC(=O)N1Cc1ccccc1 ?
7.49

Quick check: pIC50 on Integrin alpha-4/beta-1 (Homo sapiens, UniProt P05556+P13612), item O=C(O)[C@H](Cc1ccc([N+](=O)[O-])cc1)NC(=O)[C@@H]1CCC(=O)N1Cc1ccccc1 ?
6.25

Quick check: pIC50 on Integrin alpha-4/beta-1 (Homo sapiens, UniProt P05556+P13612), item O=C(O)[C@H](Cc1ccc(C#Cc2ccccc2)cc1)NC(=O)[C@@H]1CCC(=O)N1Cc1ccccc1 ?
7.28

Quick check: pIC50 on Integrin alpha-4/beta-1 (Homo sapiens, UniProt P05556+P13612), item O=C(O)[C@H](Cc1ccccc1)NC(=O)[C@@H]1CCC(=O)N1Cc1ccccc1 ?
6.34
